# RUN_DESCRIPTION: Pharmacokinetic study of SK14-061a after oral and intravenous administration in rats
# Format: in vivo
# STATED_CONDITIONS: rat, plasma, po, 1 mg/kg
OUTCOME_MEASURE: MRT (h)
Field: numeric (h). Do not append units.

Input line: Tell us which MRT value is on record for N#C[C@]1(CO)O[C@@H](n2cnc3c(O)ncnc32)C[C@@H]1O [SK14-061a, 4′-cyano-2′-deoxyinosine]
Output line: 5.47

###

The reader will find reported half-life values listed item by item below.
# RUN_DESCRIPTION: Pharmacokinetic study of oral co-administration of SK14-061a and ETV in rats
# Assay type: in vivo
# STATED_CONDITIONS: rat, plasma, po, 1 mg/kg
API: value field is a number in h; no unit string.

1. N#C[C@]1(CO)O[C@@H](n2cnc3c(O)ncnc32)C[C@@H]1O [SK14-061a, 4′-cyano-2′-deoxyinosine] | 4.07

Here is the next item to consider.
Input line: Kindly indicate its recorded half-life. Item: C=C1[C@H](CO)[C@@H](O)C[C@@H]1n1cnc2c(=O)[nH]c(N)nc21
Output line: 1.98

###

# RUN_DESCRIPTION: Pharmacokinetic study of SK14-061a after oral and intravenous administration in rats
# Assay type: in vivo
# STATED_CONDITIONS: rat, plasma, po, 1 mg/kg
OUTCOME_MEASURE: CL/F (mL/min/kg)
Output spec: scalar in mL/min/kg, unitless text.

Input line: Recall and state the measured CL/F for N#C[C@]1(CO)O[C@@H](n2cnc3c(O)ncnc32)C[C@@H]1O [SK14-061a, 4′-cyano-2′-deoxyinosine] .
Output line: 55.3

###

# RUN_DESCRIPTION: Pharmacokinetic study of oral co-administration of SK14-061a and ETV in rats
# Type: in vivo
# STATED_CONDITIONS: rat, plasma, po, 1 mg/kg; read-out: Cmax
OUTCOME_MEASURE: Cmax (µg/mL)
// units = µg/mL; emit number, no label

1) C=C1[C@H](CO)[C@@H](O)C[C@@H]1n1cnc2c(=O)[nH]c(N)nc21 | 0.135

Input line: Read the entry N#C[C@]1(CO)O[C@@H](n2cnc3c(O)ncnc32)C[C@@H]1O [SK14-061a, 4′-cyano-2′-deoxyinosine] and write its reported Cmax.
Output line: 0.165

###

# RUN_DESCRIPTION: Pharmacokinetic study of SK14-061a after oral and intravenous administration in rats
# Assay type: in vivo
# STATED_CONDITIONS: rat, plasma, iv, 1 mg/kg, rats
OUTCOME_MEASURE: half-life (h)
Entry rule: numbers only, all in h.

Input line: Given the molecule N#C[C@]1(CO)O[C@@H](n2cnc3c(O)ncnc32)C[C@@H]1O [SK14-061a, 4′-cyano-2′-deoxyinosine] , write its reported half-life.
Output line: 3.01

###

# RUN_DESCRIPTION: Pharmacokinetic study of SK14-061a after oral and intravenous administration in rats
# Assay type: in vivo
# STATED_CONDITIONS: rat, plasma, iv; rats, 1 mg/kg
OUTCOME_MEASURE: Cmax
Remember to follow the number with its unit.

Input line: Given the molecule N#C[C@]1(CO)O[C@@H](n2cnc3c(O)ncnc32)C[C@@H]1O [SK14-061a, 4′-cyano-2′-deoxyinosine] , write its reported Cmax.
Output line: 431 ng/mL
